From: patent US20250297026A1

Biological target: T1, canine CD20 (canine, UniProt Q3C2E2 1-297)
T1 chain: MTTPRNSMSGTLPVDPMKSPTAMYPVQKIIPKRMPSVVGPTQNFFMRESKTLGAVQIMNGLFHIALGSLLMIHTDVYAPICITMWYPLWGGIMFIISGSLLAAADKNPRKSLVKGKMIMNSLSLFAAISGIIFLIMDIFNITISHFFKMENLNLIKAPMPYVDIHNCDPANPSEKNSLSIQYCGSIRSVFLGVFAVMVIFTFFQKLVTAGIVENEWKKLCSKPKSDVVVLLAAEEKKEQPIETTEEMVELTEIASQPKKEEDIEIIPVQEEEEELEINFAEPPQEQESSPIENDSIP
Experiment: cell-based or functional assay
For each record, write down the corresponding ADCC Maximum killing (%).
Hi! Could you send only the number? It should be in %, unit omitted.

Incoming: So what's the measured ADCC Maximum killing (%) for this one? PMX075 (antibody, V domains shown) VH: EVQLVESGGDLVKPGGSLRLSCVASGITFSRYHMSWVRQAPGKGLQWVAFINTGRSSTNYADAVAGRFTISRDNAKNTLYLQMNGLTVEDTAVYYCSTLDYWGQGTLVTVSS VL: SYVLTQLPSKSVTLKQPAHITCGGDNIGSKSVHWYQQKLGQAPILIIYYDNNRPTGIPERFSGANSGNTATLTISGALAEDEADYYCHVWDSSVNVFGGGTHLTVL
Outgoing: 46

Incoming: Can you look up the measured ADCC Maximum killing (%) of PMX079 (antibody, V domains shown) VH: EVQLVESGGDLVKPGGSLRLSCVASGLTFSRYHMSWVRQAPGKGLQWVAFINSGRSDTTYADAVKGRFTISRDNAKNTLYLQMNSLRAEDTAVYYCTTFDYWGQGTLVTVSS VL: SYVLTQLPSKNVTLKQPAHITCGGDNIGSKSVHWYQQKLGQAPALIIYYDSSRPTGIPERFSGANSGNTATLTISGALAEDEADYYCQVWDSSANVFGGGTHLTVL for me?
Outgoing: 52
